System: RAW264.7 cells
TEST: Cytotoxicity / viability of macrophages (SRB method)
Format: cell-based, mouse
CONDITIONS_USED: RAW264.7 macrophages
MEASURED_ATTRIBUTE: IC50

| COMPOUND | MEASURED_ATTRIBUTE | VALUE |
| --- | --- | --- |
| CCC1(O)C(=O)C2=C(CC1O)OC1=C(C(=O)C(O)(CC)C(O)C1)C2c1ccc(O)cc1 (centres unmarked) [Compound 2, Trieffusol B] | IC50 | > 200 µM |
| N=C(N)NN [Aminoguanidine, reference compound] | IC50 | > 200 µM |
